Experiment: amyloid nucleation score (Sup35N fusion, yeast selection) (log enrichment); library NNK2; higher = more nucleation; inactive = no reads after selection;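 also: zero at mode of non-aggregating sequences after 7 days selection at 30°C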
quantity: amyloid nucleation score
Could you keep your reply to the number by itself?

Below: 4 substances and their reported amyloid nucleation score.
> print(dat)
              substance                  quantity  obs.value
1  RTDVFWNRMQRDSLFKPNAT  amyloid nucleation score      0.192
2            KIWDCSMYTF  amyloid nucleation score      -1.07
3  IRLPPRRAFHNEFFVDLHRG  amyloid nucleation score      -1.91
4  NHRETVFVVIASRSWHARFG  amyloid nucleation score      -0.19

Ask | What amyloid nucleation score value was documented for this substance, "KHSDSTGARQWGNNVYKLDD" ?
Reply | 0.366

Ask | Find the recorded amyloid nucleation score belonging to "ARDNQMARDI" and report it.
Reply | 2.83

Ask | Looking for the measured amyloid nucleation score of "PGPAKVANCGWCTYTGGTSH" , can you help?
Reply | 1.12

* * *

Test: amyloid nucleation score (Sup35N fusion, yeast selection) (log enrichment); library NNK3; higher = more nucleation; inactive = no reads after selection
quantity: amyloid nucleation score

These recorded examples may help you get a feel for the data.
> print(dat)
              substance  obs.value
1  RSEPIKVVWVSISQPMDFFC       2.13
2  TLSMSWDLTKHFAVVTESRG   inactive
3  SLGFGIDSSYGLLTGYKFFT      0.264
4  TYMGSTYLSNSYVLVSNNIK       1.72
5              CSVVWIMV     -0.852

Ask | Need amyloid nucleation score of "APSYISRFVLLTDMPEAQTL" , thanks.
Reply | inactive

Ask | Look up amyloid nucleation score for this substance: "LGQFAIAQYFNRYSRGPMLW"
Reply | inactive

* * *

Test: amyloid nucleation score (Sup35N fusion, yeast selection) (log enrichment); library NNK2; higher = more nucleation; inactive = no reads after selection
Give 1 (yes) when the value for amyloid nucleation score is at least -0.3. Give 0 (no) when it is less.

# count of solved cases: 8
> print(dat)
              substance  label.class
1  YPYSSWRGSVHCELGINGMG      1 (yes)
2         LTRFMYYLFTDLC       0 (no)
3  CAEAFVMGFSSKGGVINRAL      1 (yes)
4  NYVCSWMLRFSVGRSQIPAV       0 (no)
5  MWQSMLSAVGSVNVMSQLGT      1 (yes)
6  VQPYSILNFRMELKANRLEL      1 (yes)
7  RCYINFGIHGLWMLHVCFWG       0 (no)
8            LCIFYNWRCV      1 (yes)

Ask | Quick check, amyloid nucleation score >= -0.3? "FFFMTKNFKIFTSALDVPSE"
Reply | 0 (no)

Ask | Confirm if amyloid nucleation score reported for the substance "VSRDIIKKVSASNRSMVSDS" is -0.3 or above.
Reply | 1 (yes)

Ask | Dear colleague, could you confirm whether "TGRGAHFHRI" has amyloid nucleation score at or above -0.3?
Reply | 1 (yes)

Ask | # bool: amyloid nucleation score of "GSWFPFWLSASMHGSCIYTR" >= -0.3
Reply | 0 (no)

Ref: the supplement of paper PMC12042874
